Reported Specific Binding [MFI] by item:
Target: T1, cynomolgus TIM-3 on isolated cyno CD14+ monocytes (cynomolgus monkey, UniProt A0A2K5U3G7 22-294)
T1 construct: whole, on cells; also called cyno monocytes expressing TIM-3
T1 sequence: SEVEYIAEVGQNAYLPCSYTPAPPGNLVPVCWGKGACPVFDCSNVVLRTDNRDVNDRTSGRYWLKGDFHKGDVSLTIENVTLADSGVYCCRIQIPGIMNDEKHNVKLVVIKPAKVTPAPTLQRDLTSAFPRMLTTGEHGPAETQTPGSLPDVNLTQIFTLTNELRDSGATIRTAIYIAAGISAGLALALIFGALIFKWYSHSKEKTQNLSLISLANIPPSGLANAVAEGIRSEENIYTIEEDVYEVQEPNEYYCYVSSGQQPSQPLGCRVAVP
Assay: FACS, cyno CD14+ monocytes, cyno3 (30085F)

Binder	Unit Label	Specific Binding [MFI]
anti-TIM3 antibody Tim3_0022 (antibody, V domains shown, Mouse monoclonal from hybridoma; also called <TIM-3> Ab(022)) VH: EVQLQESGPSLVKPSQTLSLTCSVTGDSIASAYWNWIRKFPGNKLEYMGYINYSGSTYYNPSLKSRISITRDTSQNQYYLQLNSVTTEDTATYYCVTGDYFDYWGRGTTLTVSS VL: DIQMTQSPSSLSAYLGGKVTITCKARQDVRKNIGWYQHKPGKGPRLLIWYTSTLQSGIPSRFSGSGSGRDYSFNINNLEPEDIATYYCLQYDNLPFTFGTGTKLEIR	MFI	138
anti-TIM3 antibody Tim3_0028 (antibody, V domains shown, Mouse monoclonal from hybridoma) VH: EVQLQQSVAELVRPGASVKLSCTASGFNIKTTYMHWVKQRPEQGLEWIGRIDPADDNTKYAPKFQGKATITADTSSNTAYLQLSSLTSEDAAIYYCVRDFGYVAWFAYWGQGTLVTFSA VL: NIVMTPTPKFLPVSSGDRVTMTCRASQSVDNYVAWYQQKPGQSPKLLIYYASNRYIGVPDRFTGSGSGTDFTFTISSVQVEDLAVYFCQQHYSSPYTFGSGTKLEIK	MFI	4090
anti-TIM3 antibody Tim3_0030 (antibody, V domains shown, Mouse monoclonal from hybridoma) VH: QIQLVQSGPELKKPGETVKISCKASGYPFSEYSIHWVKQAPGKGLKWMVYVNTETGQPIVGDDFRGRFVLSLETSASTAYLQINNLKNEDTATYFCGGGGYPAYWGQGTLVTVSA VL: DVLMTQTPLSLPVSLGDQASISCRSSRSIVHSSGNTYLEWYLQKPGQSPKLLIYKVSNRFSGVPDRFSGSGSGTDFTLNISRVEAEDLGVYYCFQDSHVPFTFGTGTKLEIK	MFI	144
anti-TIM3 antibody Tim3_0033 (antibody, V domains shown, Mouse monoclonal from hybridoma) VH: QGQMHQSGAELVKPGSSVKLSCKTSGFTFSSSFISWLKQKPGQSLEWIAWIYAATGSTSYNQKFTNKAQLTVDTSSSAAYMQFSSLTTEDSAIYYCARHAGYPHYYAMDYWGQGTSVTVSS VL: DIQMTQSPASLSASVGETVTITCRASENIFSNLAWYQQKQGKSPQLLVYSATNLGDGVPSRFSGSGSGTQFSLKINSLQPEDFGNYYCQHFYKIPFTFGTGTKLEIK	MFI	83
anti-TIM3 antibody Tim3_0026 (antibody, V domains shown, Mouse monoclonal from hybridoma) VH: QIQLVQSGPELKKPGETVKISCKASGYTFTDYSMHWVKQAPGRGLKWMGYINTETYEPTFGADFKGRFAFSLDTSATTAYLQINSLKTEDTATFFCGGGGYPAYWGQGTVVIVSA VL: DVLMTQTPLSLPVSLGDQASISCRSSRTILHSSGNTYLEWYLQKPGQSPKLLIYKVSNRFSGVPDRFSGSGSGTDFTLNISRVEAEDLGVYYCFQDSHVPFTFGTGTKLEIK	MFI	197
